A collection of compounds and their measured growth
tested on: HCT-116 colon; test: NCI-60 one-dose screen, 48 h (100 = growth as untreated, 0 = no growth, -100 = all killed); conditions: 10 µM unless noted
The panel holds about 83,000 compounds, 20% with a hit somewhere; the sample as a whole holds those more often.
recorded-metric: growth (%)

>>> value_observed("O=C1CCC(N2C(=O)c3cccc(NCCCC4CCN(CCNC(=O)c5cc6c(o5)C(=O)c5ccccc5C6=O)CC4)c3C2=O)C(=O)N1 (stereo not given)")
-56.9
>>> value_observed("COc1ccc(C2=NC(=O)NC2c2ccc(OC)cc2)cc1 (stereo not given)")
47
>>> value_observed("CC(C)CCC[C@@H](C)[C@H]1CCC2C3=CCC4C(=O)C=CC(=O)C4C3CC[C@@]21C (stereo not given in full)")
-75.5
>>> value_observed("Nc1ccc(S(=O)(=O)Nc2ccsc2-c2nc(-c3ccccc3)no2)cc1")
38.4
>>> value_observed("CCNCCNc1cc(-c2ccc(C(F)(F)F)cc2)c(C#N)c2nc3cc(Cl)c(Cl)cc3n12")
-88.3
>>> value_observed("COc1cccc(-c2nc3sccn3c2-c2ccnc(NCCNS(=O)(=O)c3c(Cl)cccc3Cl)c2)c1")
48.8
>>> value_observed("CCCCN(CCCC)CCCn1c(=O)c2sc3ncccc3c2n2nnc(-c3ccccc3)c12")
83.6
>>> value_observed("CCOC(=O)c1c(C)nc2c(c1N)/C(=C/c1cc(OC)c(OC)c(OC)c1)C(=O)N2c1ccc(OC)cc1")
-0.0724
>>> value_observed("CCC(=O)OC1=C(C)SC2=NC(c3ccc(Cl)c(Cl)c3)=CC(c3cc(OC)c(OC)c(OC)c3)N21 (stereo not given)")
95
>>> value_observed("C/C(=N\\NC(N)=S)c1nc2ccc(Cl)cc2[nH]1")
35.6
>>> value_observed("COc1ccc(OC)c(/C=C2\\COc3ccc(O)cc3C2=O)c1")
66.9
>>> value_observed("CCN(CC)CCOC(=O)N1c2ccccc2Sc2ccccc21")
81.7
>>> value_observed("N#Cc1c(NC(=O)c2cccc(C(F)(F)F)c2)sc2c1CCC(=O)C2")
-63.7
>>> value_observed("Cc1cc(=O)[nH]c(N/N=C/c2cc(Br)ccc2O)n1")
5.04
>>> value_observed("O=[N+]([O-])c1ccc(-c2cc3c(Nc4ccc(OCc5cccc(Cl)c5)c(Cl)c4)ncnc3s2)cc1")
52
>>> value_observed("Cc1ccc(C)c2c1C(=O)OC2=O")
96.4
>>> value_observed("Nc1c(-c2nc3ccc(Br)cc3c(=O)[nH]2)nnn1-c1ccccc1")
48.2
>>> value_observed("Cc1c(C(N)=O)sc2nc(C)n(/N=c3\\scc(-c4ccccc4)n3Cc3ccccc3)c(=O)c12")
29.1
>>> value_observed("CCCN1CCN(c2ccc3nc(-c4ccc5nc(-c6cc(OC)c(OC)c(OC)c6)[nH]c5c4)[nH]c3c2)CC1")
55.1
>>> value_observed("CCC(C)NCc1ccccc1 (stereo not given)")
91.8

###

Tested on: DU-145 prostate
Assay: NCI-60 one-dose screen, 48 h (100 = growth as untreated, 0 = no growth, -100 = all killed)
Conditions: 10 µM unless noted
Protocol: Cells are grown in 96 well plates and exposed to the test compound for 48 hours. Compounds are tested at a single concentration, which is 10^-5 M for most compounds. The reported endpoint is percent growth (GI% or GIPRCNT), where numbers from 0 - 100% represent growth inhibition, and numbers from -100% - 0 represent cell death. For example, a value of 40 represents 60% growth inhibition. A value of 0 means no net growth occurred over the course of the experiment. […]
This is part of a sample that, as a whole, favours compounds with a hit. Of some 83,000 tested, about 20% had one in any assay.
recorded-metric: growth (%)

>>> value_observed("COc1ccc(C(=O)/C=C/c2cc3c(c(OC)c2)OCC(=O)N3)cc1")
-20.7
>>> value_observed("COc1cc(/C=C/C(=O)c2cccc(-n3cc(-c4ccccc4)[nH]c3=O)c2)cc(OC)c1OC")
7.58
>>> value_observed("Cc1cc(-c2ccccc2)cc(SC#N)[n+]1[O-]")
46.6
>>> value_observed("O=c1oc2ccc(Cl)cc2cc1-c1cs/c(=N/N=C\\c2ccc(Cl)cc2)n1/N=C/c1ccc(Cl)cc1")
108
>>> value_observed("CN(C)CCN1C(=O)c2cccc3c(-c4ccc(-c5nc6c7ccccc7c7ccccc7c6[nH]5)cc4)ccc(c23)C1=O")
102
>>> value_observed("C=C(C=O)[C@@H]1CC=C(C=O)CC1")
-74.6
>>> value_observed("COc1cccc(-c2nc3sccn3c2-c2ccnc(NCCNS(=O)(=O)c3c(Cl)cccc3Cl)c2)c1")
63
>>> value_observed("CCOC(=O)c1cnn2c(-c3ccc(Cl)cc3)nc(NCc3ccccc3)nc12")
44.6
>>> value_observed("COc1cc2oc(-c3cccc(C(=O)Nc4ccc(C)cc4)c3)cc(=O)c2c(OC)c1OC")
48.2
>>> value_observed("CCOC(=O)c1ccc(-c2ccc3cc(OC)ccc3c2)nc1C")
103

Reference for the values: PubChem BioAssay (NCI)
